Hello, the source for this data is ChEMBL document CHEMBL2380246, in case you need it.

system: MKN-7; experiment: Growth inhibition of human MKN7 cells after 48 hrs by sulforhodamine B assay; assay type: functional; details: MKN-7, 48 h
Decide using GI50 alone. Strictly below 0.6 µM: true. Equal to or above 0.6 µM: false.

Worked examples, 2 molecules total:
- compound_structure: "CCCCCCCCCCCC[C@@H](O)[C@H]1CC[C@H]([C@H](O)CCCCCCCCCCC(=O)Nc2ccnn2C)O1"
  system_tested: "MKN-7"
  category: "false"
- compound_structure: "CCCCCCCCCCCC[C@@H](O)[C@H]1CC[C@H]([C@H](O)CCCCCCCCCCCCc2ccnn2C)O1"
  system_tested: "MKN-7"
  category: "false"

Field: below-cutoff. Rule: recorded GI50 strictly less than 0.6 µM. Subject: CCCCCCCCCCCC[C@@H](O)[C@H]1CC[C@H]([C@H](O)CCCCCCCCCCNCc2ccnn2C)O1
true

Field: below-cutoff. Rule: recorded GI50 strictly less than 0.6 µM. Subject: CCCCCCCCCCCC[C@@H](O)[C@H]1CC[C@H]([C@H](O)CCCCCCCCCCN(C)C(=O)c2ccnn2C)O1
true
